- test-system: X-box-binding protein 1 (Homo sapiens) (UniProt P17861)
- method-description: XBP1 reporter suppression in cells – counter-screen, dose response (AID 504313);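 further: CHO cells carrying an XBP1 reporter stimulated with tunicamycin; potency is for inhibition of the tunicamycin-induced reporter signal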
- test-conditions: XBP1 reporter cell assay, percent of control
The source made the active and inactive calls. How the calls were made is not given here.
Labels: active, inactive

molecule="CN(C)c1ccc(C(CNS(=O)(=O)c2ccc(F)c(F)c2)c2c[nH]c3ccccc23)cc1 (configuration not stated)" test_system="X-box-binding protein 1 (Homo sapiens) (UniProt P17861)" qualitative_label=inactive
molecule=O=C(O)c1cccc(COc2ccccc2Cl)c1 test_system="X-box-binding protein 1 (Homo sapiens) (UniProt P17861)" qualitative_label=active
molecule=Nc1c(C(=O)Nc2ccccc2F)sc2nc(-c3cccnc3)ccc12 test_system="X-box-binding protein 1 (Homo sapiens) (UniProt P17861)" qualitative_label=inactive
molecule=CCCCCn1c(=O)c(C(=O)Nc2nc3ccccc3[nH]2)c(O)c2ccccc21 test_system="X-box-binding protein 1 (Homo sapiens) (UniProt P17861)" qualitative_label=active
molecule=O=c1c(Br)c(Br)cnn1-c1ccccc1 test_system="X-box-binding protein 1 (Homo sapiens) (UniProt P17861)" qualitative_label=inactive
molecule=Cc1ccc(NC(=O)CSc2nc3ccccc3c3nc(CCc4c(C)n[nH]c4C)nn23)cc1F test_system="X-box-binding protein 1 (Homo sapiens) (UniProt P17861)" qualitative_label=inactive
molecule=Cn1c(=O)[nH]c(=O)c2[nH]c(N(Cc3ccccc3)Cc3ccccc3)nc21 test_system="X-box-binding protein 1 (Homo sapiens) (UniProt P17861)" qualitative_label=inactive

----------
- test-system: X-box-binding protein 1 (Homo sapiens) (UniProt P17861)
- method-description: XBP1 reporter suppression in cells – counter-screen, dose response (AID 504313);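 further: CHO cells carrying an XBP1 reporter stimulated with tunicamycin; potency is for inhibition of the tunicamycin-induced reporter signal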
- test-conditions: XBP1 reporter cell assay, percent of control
Activity calls are given as the source filed them. No rule for the calls is given here.
Labels: t (active), f (inactive)

structure_smiles=O=C(CSC1c2ccccc2-c2ccccc21)N/N=C/c1ccccc1O qualitative_label=f
structure_smiles=Cc1nc(SCC(=O)Nc2ccc(C)c(F)c2)c2oc3ccccc3c2n1 qualitative_label=f
structure_smiles=COc1ccc(C(=O)/C=C/C(=O)N(CC(=O)NCCC(C)C)Cc2cccs2)c(O)c1 qualitative_label=f
structure_smiles=CCCCS(=O)(=O)/C=C\C=C/S(=O)(=O)CCCC qualitative_label=t
